B1: Chromodomain-helicase-DNA-binding protein 5, residues 338 to 390; numbered along this chain, Q8TDI0 (parent)
chain: YETDHQDYCEVCQQGGEIILCDTCPRAYHLVCLDPELEKAPEGKWSCPHCEKE

Variants of: B1
procedureSummary: abundance fitness (aPCA) (normalised: wild type 0, dead -1); higher = more abundant; growth selection in yeast, the domain comes from the species named
assayConditions: Homo sapiens
Consider the following partition of reported abundance fitness into named classes: bucket A = under -0.3, bucket B = from -0.3 up to -0.05, bucket C = -0.05 and over

Use these answered entries as a reference point.
# bin lookup: classify `P48S` by its abundance fitness
bucket C

Which class is correct for the following variant? `T23H`
bucket A

Which class holds `C32M` ?
bucket A

Sort into band: `C21S`
bucket A

Which abundance fitness category applies to `P41Q` here?
bucket A

Dear colleague, I would appreciate it if you could identify the bin for `S46L` and reply at your convenience.
bucket C

Lab note: next variant to report on.
Lab note: sort `I18K` into the matching abundance fitness band.
bucket C
